// data source = patent US20200297760A1

study-target: HLA-A*11:01 (Homo sapiens, UniProt P04439, A114D/D185E/E176A/F33Y/L180Q/S129P/T187R)
test-summary: REVEAL Epitope Discovery System in vitro MHC-peptide binding assay
measurement-setup: binding normalized to positive control peptide set at 100%, >50 considered good or high affinity binding
Method: Actual binding affinities for certain HLA class I alleles (A*02:01, A*03:01, A*11:01, and B*08:01) were assessed in vitro for exemplary overlapping 9 amino acid peptide sequences within a portion of the 26 amino acid junction region spanning the CD28 and 4-1BB junction. […] In addition, a series of overlapping 9-mer peptides of each of a number of different variants of this portion also were assessed, each variant containing a mutation or mutations in this region as described in Example 2. […]
measured-metric: A*11:01 In Vitro Score

entry-smiles	numeric-value
CC[C@H](C)[C@H](N)C(=O)N[C@@H](Cc1ccccc1)C(=O)N[C@@H](Cc1c[nH]c2ccccc12)C(=O)N[C@H](C(=O)N[C@@H](CCCCN)C(=O)N[C@@H](CCCNC(=N)N)C(=O)NCC(=O)N[C@@H](CC(N)=O)C(=O)N[C@@H](CCCCN)C(=O)O)C(C)C	45.90
CC[C@H](C)[C@H](N)C(=O)N[C@H](C(=O)N[C@@H](Cc1ccccc1)C(=O)N[C@@H](Cc1c[nH]c2ccccc12)C(=O)N[C@H](C(=O)N[C@@H](CCCCN)C(=O)N[C@@H](CCCNC(=N)N)C(=O)NCC(=O)N[C@@H](CC(N)=O)C(=O)O)C(C)C)[C@@H](C)CC	42.10
CC(C)[C@H](NC(=O)[C@H](Cc1c[nH]c2ccccc12)NC(=O)[C@@H](N)Cc1ccccc1)C(=O)N[C@@H](C)C(=O)N[C@@H](CCCNC(=N)N)C(=O)NCC(=O)N[C@@H](CCCNC(=N)N)C(=O)N[C@@H](CCCCN)C(=O)N[C@@H](CCCCN)C(=O)O	8.90
CC[C@H](C)[C@H](N)C(=O)N[C@H](C(=O)N[C@@H](Cc1ccccc1)C(=O)N[C@@H](Cc1c[nH]c2ccccc12)C(=O)N[C@H](C(=O)N[C@@H](CCCCN)C(=O)N[C@@H](CCCNC(=N)N)C(=O)NCC(=O)N[C@@H](CO)C(=O)O)C(C)C)[C@@H](C)CC	100.00
CC(C)[C@H](NC(=O)[C@H](Cc1c[nH]c2ccccc12)NC(=O)[C@@H](N)Cc1ccccc1)C(=O)N[C@@H](CCCCN)C(=O)N[C@@H](CCCNC(=N)N)C(=O)NCC(=O)N[C@@H](CC(N)=O)C(=O)N[C@@H](CCCCN)C(=O)N[C@@H](CCCCN)C(=O)O	7.30
CC[C@H](C)[C@H](N)C(=O)N[C@H](C(=O)N[C@@H](Cc1ccccc1)C(=O)N[C@@H](Cc1c[nH]c2ccccc12)C(=O)N[C@H](C(=O)N[C@@H](CC(C)C)C(=O)N[C@@H](CCCNC(=N)N)C(=O)NCC(=O)N[C@@H](CCCNC(=N)N)C(=O)O)C(C)C)[C@@H](C)CC	35.20
